Where these numbers come from: patent US4845109A

Collected ED30 values appear next to each entry.
- Test system: arterial pressure
- experimental.protocol: Hypotensive activity in narcotized rats: reduction of arterial pressure
- Type: in vivo
- assay.context: Rattus norvegicus; narcotized rats (urethane); read-out: ED30 (average dose that reduces the arterial pressure by 30%)
- From the text: Average doses of the compounds under study that reduce the arterial pressure in narcotized animals by 30%
measured.metric: ED30 (mg/kg)

[[record]]
compound_smiles = "CCOCCOC(=O)C1=C(C)NC(C)=C(C(=O)OCCOCC)C1c1ccccc1OC(F)F"
quantitative_readout = 0.018

[[record]]
compound_smiles = "COCCOC(=O)C1=C(C)NC(C)=C(C(=O)OCCOC)C1c1ccccc1OC(F)F"
quantitative_readout = 0.04

[[record]]
compound_smiles = "CCCOCCOC(=O)C1=C(C)NC(C)=C(C(=O)OCCOCCC)C1c1ccccc1OC(F)F"
quantitative_readout = 0.008

[[record]]
compound_smiles = "CC1=C(C(=O)OCCOc2ccccc2)C(c2ccccc2OC(F)F)C(C(=O)OCCOc2ccccc2)=C(C)N1"
quantitative_readout = 0.03

